Cited source: patent US8969573B2

target: eIF4E/eIF4G interaction (Homo sapiens, UniProt P06730); experiment: Fluorescent polarization assay; format: binding; settings: FITC eIF4G peptide and recombinant eIF4E, ratio to Z (4EGI-1 = 1)
Sequence (P06730 whole entry): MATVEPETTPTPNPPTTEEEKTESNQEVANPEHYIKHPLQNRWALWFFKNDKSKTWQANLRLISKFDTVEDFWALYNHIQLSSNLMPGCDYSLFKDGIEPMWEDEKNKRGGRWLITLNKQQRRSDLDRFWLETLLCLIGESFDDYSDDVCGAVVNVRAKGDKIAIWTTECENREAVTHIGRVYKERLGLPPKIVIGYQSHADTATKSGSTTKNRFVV
Observable: Fp (ratio to Z)

Example results:
Molecule | Tgt | Fp (ratio to Z)
[N-]=[N+]=NCCCOc1ccc(-c2csc(N/N=C(/Cc3ccccc3[N+](=O)[O-])C(=O)O)n2)cc1 [KH-167f] | eIF4E/eIF4G interaction (Homo sapiens, UniProt P06730) | 1.04
CCCc1sc(N/N=C(/Cc2ccccc2[N+](=O)[O-])C(=O)O)nc1-c1ccc(OC)cc1 [KY-582S] | eIF4E/eIF4G interaction (Homo sapiens, UniProt P06730) | 0.9
O=C(O)[C@@H](Cc1cccc([N+](=O)[O-])c1)Nc1nc(-c2ccc(Cl)c(Cl)c2)cs1 [KY-365] | eIF4E/eIF4G interaction (Homo sapiens, UniProt P06730) | 0.82

(P) O=C(O)/C(Cc1ccccc1[N+](=O)[O-])=N/Nc1nc2c(s1)CCc1cc(Cl)c(Cl)cc1-2 [PC-159F]
(Q) O=C(O)/C(=N\Nc1nc(-c2ccc(Cl)c(Cl)c2)cs1)c1c[nH]c2ccccc12 [KY-689]
(R) O=C(O)/C(Cc1c(Br)cccc1[N+](=O)[O-])=N/Nc1nc(-c2ccc(Cl)c(Cl)c2)cs1 [RYF-339F]
Falling order of Fp (ratio to Z), please. List each label, following the requested order.
Q, R, P
(Q: 4, R: 2.0, P: 1.05)

(1) COc1ccc(-c2sc(N/N=C(/Cc3ccccc3[N+](=O)[O-])C(=O)O)nc2-c2ccc(OC(C)C)cc2)cc1 [KY-599S]
(2) Cc1ccc(-c2nc(NN=C(Cc3ccccc3[N+](=O)[O-])C(=O)O)sc2-c2ccc(Cl)c(Cl)c2)cc1 [KY-365A22-B3]
Pick one, 1 or 2 : lowest reported Fp (ratio to Z). Output the label that corresponds to your choice.
2
(2: 0.85, 1: 1.3)
